Reported Exp. relative binding free energy ΔΔG by item:
- test-target: wildtype Tiam1 PDZ domain (WT) (Homo sapiens, UniProt Q13009)
- Construct: The Tiam1 PDZ domain was purified by nickel-chelate (GE-Healthcare) and size-exclusion chromatography; His6 (N, cleaved yes); made in house; host or cells: Escherichia coli BL21(DE3)
- Sequence (Q13009 841-930 limits assumed): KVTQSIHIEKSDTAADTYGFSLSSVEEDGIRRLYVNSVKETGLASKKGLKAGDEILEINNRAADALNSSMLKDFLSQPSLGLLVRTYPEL
- assay-text: Fluorescence anisotropy binding of dansylated peptides
- measurement-setup: relative to WT:Sdc1, this work, dansylated peptide 5–10 μM, 20 mM sodium phosphate, 50 mM NaCl, pH 6.8, 25°C, triplicate
Marks after values point to notes of the source that are not given here.

Known Exp. relative binding free energy ΔΔG results, listed for orientation:
query-sequence: TKQLEFYACOOH [Sdc1.E4L, Sdc1 point mutant, Leu at position 4]
Exp. relative binding free energy ΔΔG: 0.56^e kcal/mol
--
query-sequence: TKQEENYACOOH [Sdc1-F2N, Sdc1 point mutant, Asn at position 2]
Exp. relative binding free energy ΔΔG: ≥ 1.32 kcal/mol

INPUT: What does the record list as Exp. relative binding free energy ΔΔG for TKQEERYACOOH [Sdc1-F2R, Sdc1 point mutant, Arg at position 2] ?
OUTPUT: ≥ 1.32 kcal/mol

INPUT: What does the record list as Exp. relative binding free energy ΔΔG for TKQETFKACOOH [Sdc1.E3T, Y1K, Sdc1 double mutant] ?
OUTPUT: 1.33^e kcal/mol

INPUT: What does the record list as Exp. relative binding free energy ΔΔG for TKQEDFTACOOH [Sdc1.E3D, Y1T, Sdc1 double mutant] ?
OUTPUT: 0.87^e kcal/mol

INPUT: What does the record list as Exp. relative binding free energy ΔΔG for TKQEEAYACOOH [Sdc1-F2A, Sdc1 point mutant, Ala at position 2] ?
OUTPUT: ≥ 1.32 kcal/mol
